- target.of.assay: P-glycoprotein (P-GP) (Homo sapiens, UniProt P08183)
- Sequence (P08183 whole entry): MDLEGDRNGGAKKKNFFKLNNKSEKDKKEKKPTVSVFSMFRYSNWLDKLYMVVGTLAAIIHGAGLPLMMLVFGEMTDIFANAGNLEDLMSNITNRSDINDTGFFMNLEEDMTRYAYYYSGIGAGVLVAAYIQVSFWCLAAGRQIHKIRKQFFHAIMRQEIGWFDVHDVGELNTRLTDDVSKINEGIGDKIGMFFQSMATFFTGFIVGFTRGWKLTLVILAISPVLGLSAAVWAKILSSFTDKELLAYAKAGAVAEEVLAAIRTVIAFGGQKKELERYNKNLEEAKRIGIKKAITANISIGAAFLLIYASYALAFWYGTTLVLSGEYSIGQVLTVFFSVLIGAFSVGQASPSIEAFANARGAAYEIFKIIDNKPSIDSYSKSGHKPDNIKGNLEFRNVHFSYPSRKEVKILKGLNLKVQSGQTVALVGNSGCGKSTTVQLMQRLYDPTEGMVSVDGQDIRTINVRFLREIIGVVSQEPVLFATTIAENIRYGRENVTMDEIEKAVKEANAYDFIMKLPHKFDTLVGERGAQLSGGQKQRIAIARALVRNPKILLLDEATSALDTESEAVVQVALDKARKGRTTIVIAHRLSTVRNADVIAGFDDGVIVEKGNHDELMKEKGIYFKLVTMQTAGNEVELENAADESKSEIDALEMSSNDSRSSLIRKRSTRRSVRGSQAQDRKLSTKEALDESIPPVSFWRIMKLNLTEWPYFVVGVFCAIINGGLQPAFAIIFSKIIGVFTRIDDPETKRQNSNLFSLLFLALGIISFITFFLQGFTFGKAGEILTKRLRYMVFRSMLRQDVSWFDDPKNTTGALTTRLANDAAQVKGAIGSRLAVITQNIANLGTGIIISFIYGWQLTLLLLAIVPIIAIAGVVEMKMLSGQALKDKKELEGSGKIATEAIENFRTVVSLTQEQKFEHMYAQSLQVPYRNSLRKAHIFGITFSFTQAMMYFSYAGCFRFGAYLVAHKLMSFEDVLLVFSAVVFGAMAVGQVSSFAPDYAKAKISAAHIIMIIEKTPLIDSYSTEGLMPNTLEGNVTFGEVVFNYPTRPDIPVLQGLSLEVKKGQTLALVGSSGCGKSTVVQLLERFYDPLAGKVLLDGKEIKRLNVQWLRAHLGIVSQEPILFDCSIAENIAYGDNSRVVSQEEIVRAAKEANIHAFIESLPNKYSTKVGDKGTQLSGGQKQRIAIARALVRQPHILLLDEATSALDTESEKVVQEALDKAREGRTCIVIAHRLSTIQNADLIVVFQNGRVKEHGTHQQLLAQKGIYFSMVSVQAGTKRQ
- test.name: Evaluation as P-Gp substrate: penetration test in MDCKII-MDR1 cells with Verapamil as inhibitor
- settings: dog, MDCK-MDR1
Cut-off 2 on efflux ratio at 2 h, inclusive. At or above means yes; below means no.

Reference set (3 entries):
O=[N+]([O-])c1ccc(COP(=O)(N2CC2)N2CC2)cc1Oc1ccc(-c2ccc(F)cn2)cc1; no
O=[N+]([O-])c1ccc(C(OP(=O)(N2CC2)N2CC2)C(F)(F)F)cc1Oc1ccc(-c2ccc(F)cc2)c(F)c1 (stereo not drawn); no
O=[N+]([O-])c1cc(F)c(COP(=O)(N2CC2)N2CC2)cc1Oc1ccc(-c2ccc(F)cc2)cc1; no

// query State whether the measured efflux ratio at 2 h reaches 2, counting equality as reaching it, for Cc1cc(F)ccc1-c1ccc(Oc2cc(COP(=O)(N3CC3)N3CC3)ccc2[N+](=O)[O-])cc1F
// result no

// query State whether the measured efflux ratio at 2 h reaches 2, counting equality as reaching it, for O=[N+]([O-])c1ccc(COP(=O)(N2CC2)N2CC2)cc1Oc1ccc(-c2ccc(F)cc2)nc1
// result no

// query State whether the measured efflux ratio at 2 h reaches 2, counting equality as reaching it, for O=[N+]([O-])c1ccc(COP(=O)(N2CC2)N2CC2)cc1Oc1ccc(-c2ccc(F)cc2F)c(F)c1
// result no

// query State whether the measured efflux ratio at 2 h reaches 2, counting equality as reaching it, for Cc1ccc(NC(=O)c2ccc(CN3CCN(C)CC3)cc2)cc1Nc1nccc(-c2cccnc2)n1 [Imatinib, reference compound]
// result yes

// query State whether the measured efflux ratio at 2 h reaches 2, counting equality as reaching it, for COc1cc2nc(N3CCN(C(=O)c4ccco4)CC3)nc(N)c2cc1OC [Prazosin, reference compound]
// result yes

// query State whether the measured efflux ratio at 2 h reaches 2, counting equality as reaching it, for O=[N+]([O-])c1ccc(C(OP(=O)(N2CC2)N2CC2)C(F)(F)F)cc1Oc1ccc(-c2ccc(F)cc2F)cc1 (stereo not drawn)
// result no

// query State whether the measured efflux ratio at 2 h reaches 2, counting equality as reaching it, for O=[N+]([O-])c1ccc(COP(=O)(N2CC2)N2CC2)cc1Oc1ccc(-c2ccc(F)cc2)c(F)c1
// result no

// query State whether the measured efflux ratio at 2 h reaches 2, counting equality as reaching it, for O=[N+]([O-])c1ccc(COP(=O)(N2CC2)N2CC2)cc1Oc1ccc(-c2ccc(F)cc2)cc1
// result no
